ASSAY SUMMARY: Dissociation constant, pKa of the compound
Format: physicochemical
MEASUREMENT NAME: pKa
// no unit string in output, number only

Example results:
> print(dat)
                           smiles.structure  numeric.value
1  CC(=O)NCc1cccc(Cn2nc(NS(=O)(=O)c3ccc(Cl)s3)c3c(CO)cccc32)c1           5.66
2  CC(=O)NCc1cccc(Cn2nc(NS(=O)(=O)c3ccc(Cl)s3)c3c(C(F)F)cccc32)c1            5.6
3  COc1cccc2c1c(NS(=O)(=O)c1ccc(C)c(F)c1)nn2Cc1cccc(CNC(=O)C(C)(C)O)c1           7.26
4  CC(=O)NCc1cccc(Cn2nc(NS(=O)(=O)c3ccc(Cl)s3)c3c(F)cccc32)c1           5.62

Value of measured pKa for the entry CC(=O)NCc1cccc(Cn2nc(NS(=O)(=O)c3ccc(Cl)s3)c3c(C#N)cccc32)c1 : 5.4

---

Catalogue of Kb readings, one per entry.
TARGET DESC: C-C chemokine receptor type 4 (Homo sapiens, UniProt P51679)
Sequence (P51679 whole entry): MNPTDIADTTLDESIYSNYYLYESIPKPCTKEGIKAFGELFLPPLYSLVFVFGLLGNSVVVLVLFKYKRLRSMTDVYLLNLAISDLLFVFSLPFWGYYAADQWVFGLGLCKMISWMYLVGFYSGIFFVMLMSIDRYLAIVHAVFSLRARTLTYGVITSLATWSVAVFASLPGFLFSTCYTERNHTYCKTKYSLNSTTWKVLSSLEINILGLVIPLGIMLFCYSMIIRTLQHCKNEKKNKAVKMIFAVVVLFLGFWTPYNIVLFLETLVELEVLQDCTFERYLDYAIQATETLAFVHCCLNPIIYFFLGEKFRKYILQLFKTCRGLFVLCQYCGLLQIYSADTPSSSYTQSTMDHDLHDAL
ASSAY SUMMARY: Antagonist activity at CCR4 receptor in human whole blood assessed as F-actin polymerization after 30 mins by FACS-based flow cytometric analysis
RUN PARAMETERS: read-out: pA2 (converted)
Respond with the figure and its unit, in that order.

> print(dat)
                                   molecule   result
1  COc1cccc2c1c(NS(=O)(=O)c1ccc(Cl)s1)nn2Cc1cccc(CNC(=O)C2COCCN2C)c1 (single isomer, unassigned; isomer B)   251 nM
2  CC(=O)NCc1cccc(Cn2nc(NS(=O)(=O)c3ccc(Cl)s3)c3c(CO)cccc32)c1  1000 nM
3  COc1cccc2c1c(NS(=O)(=O)c1ccc(C)c(F)c1)nn2Cc1cccc(CNC(=O)C(C)(C)O)c1  1260 nM

Readout Kb for COc1cc(F)cc2c1c(NS(=O)(=O)c1ccc(Cl)s1)nn2Cc1cccc(CNC(C)=O)c1 , test system C-C chemokine receptor type 4 (Homo sapiens, UniProt P51679), was 1000 nM

Readout Kb for COc1cccc2c1c(NS(=O)(=O)c1ccc(Cl)s1)nn2Cc1cccc(CNC(=O)[C@H]2COCCN2)c1 , test system C-C chemokine receptor type 4 (Homo sapiens, UniProt P51679), was 562 nM

Readout Kb for COc1cc(F)cc2c1c(NS(=O)(=O)c1ccc(Cl)s1)nn2Cc1cccc(CNC(=O)C(C)(C)O)c1 , test system C-C chemokine receptor type 4 (Homo sapiens, UniProt P51679), was 631 nM

Readout Kb for COc1c(F)ccc2c1c(NS(=O)(=O)c1ccc(Cl)s1)nn2Cc1cccc(CNC(C)=O)c1 , test system C-C chemokine receptor type 4 (Homo sapiens, UniProt P51679), was 3160 nM

Readout Kb for COc1c(F)ccc2c1c(NS(=O)(=O)c1ccc(Cl)s1)nn2Cc1cccc(CNC(=O)C(C)(C)O)c1 , test system C-C chemokine receptor type 4 (Homo sapiens, UniProt P51679), was 631 nM

---

TARGET DESC: C-C chemokine receptor type 4 (Homo sapiens)
ASSAY SUMMARY: Antagonist activity at CCR4 receptor in human whole blood assessed as F-actin polymerization after 30 mins by FACS-based flow cytometric analysis
RUN PARAMETERS: read-out: pA2 (converted)
MEASUREMENT NAME: Kb (nM)
The reply should be a number in nM, with the unit left off.

Example results:
> print(dat)
                                   molecule  numeric.value
1  CC(=O)NCc1cccc(Cn2nc(NS(=O)(=O)c3ccc(Cl)s3)c3c(C(C)O)cccc32)c1 (stereo not drawn)            501
2  CC(=O)NCc1cccc(Cn2nc(NS(=O)(=O)c3ccc(Cl)s3)c3c(F)cccc32)c1           5010
3  CN[C@H](C)C(=O)NCc1cccc(Cn2nc(NS(=O)(=O)c3ccc(Cl)s3)c3c(OC)cccc32)c1            200
4  COc1cccc2c1c(NS(=O)(=O)c1ccc(Cl)s1)nn2Cc1cccc(CNC(=O)C2CCOCC2)c1            501
5  CC(=O)NCc1cccc(Cn2nc(NS(=O)(=O)c3ccc(Cl)s3)c3c(C(F)F)cccc32)c1           7940
6  COc1cccc2c1c(NS(=O)(=O)c1ccc(Cl)s1)nn2Cc1cccc(CNC(=O)C2CCCO2)c1 (stereo not drawn)            794

Consider the additional molecule presented here.
Value of measured Kb for the entry COc1cccc2c1c(NS(=O)(=O)c1ccc(Cl)s1)nn2Cc1cccc(CNC(=O)C2COC2)c1 : 1000
